Data credit: the NTF2 design screens of Basanta et al. (2020)

# EXPERIMENT NOTES: protease stability score; higher = more stable; yeast display proteolysis, trypsin and chymotrypsin;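 note: log10 excess protease needed over predicted unfolded state with 0 meaning unfolded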
Answer each item with its documented protease stability score.
// print number alone

// returns reported protease stability score for input DRKTEKDAIERARTALQDGDPQQAFDLFDENAKIVVGDQEYHGREQVSTAVEEFRKEIDHFEVERVSVHNGHATIDARVEHNGRSDDVTFHVTVHNGQVREAQVRTK
-0.213

Now consider DEEEIATENAQRFINAVNKNNPDEFVKNMDEDVRIEYGDKVVHGRSQAKHLANEMVDKVDHLTARITDFKVHNGEVDVNVRITFRHNGRNDTHHVRLHLQVHNGRLHIQSMKWS .
-0.412

Then EENEVEKIMQVAHSGDFDSLVELADPNVTIKVGDKEWHGREHATEFFEKMKRHIDHVDVKSMSAQGDKITVRAHFNVNGDTLDFNLHIVISNGRIQSVKIQVTSHELRKTLTDQLG ?
1.44

Field entry: EEENVKLVERFLKAVLEGDEDQLRRLMDPNARVRVGDKVLTGRDRVAEHFKERSQQWQFHIDVKHVSVNGDHIIMHFQFSMTVNGQPRSATMTAVFRVHNGRIQQVEFRLPEEDQKTIRG
0.811

Moving on to the next sequence: DETVEELIKRFMRAIKNNNPDELVRNADKDAKYDIGDKTIHGREQLHDHVEHLRDEMQIDYEVENLKVHNGRADVDVKNNNNHNGRPETKRLRLDVVVHNGKIKDVKFQDTR
0.243

Same thing, different sequence: DEDLIELAKELMHALQEGDEKRLQDLIDPNASAQIGDHRVHGMDEVLSTLVEHQHNQRVRIDRMEADVHNGTARVRIDQQFEHNGNPDKKVLVYEMTANNGKLKHYKLDEDK
0.268

What would you report for DEEKDEDFARKVLQAVQTGDHDKIKKMADPNASATIGDKTWHGREQLSEAIRRWKEEADRVDVKSVSVQGDRASADMKVQHNGKMTDVRVFVEASNGRLKKLEIDTK ?
1.16

For DEEDVKKAETLIKNGDWERIANHLDPNAKATYGDKTFHGHEELKRVIKNLQDQVDSLHIHKVDVQGNSVIVSADLHVNGETLKMTFVMHVHNGRVKEVSANVTSSELKELLDHMLS then?
0.749

Consider next the sequence DTQKIVDDIAHEVVEVLKTGDPRKVVKLVDENARLQVGDKIVRGREDVKKRAEKENSRVDHREARVQEVTMHNGDVTIRFRVKDTHNGRSDSREYTIHLQEHDGKVFIQNMEDR in the same way.
-0.261

What about DEDKMKSILTVAQEGDPDEMKRQADEDARVHIGDKRVHGRESFQKAMDEYTKAVDSQHVKRVSSRENRVKVTAVLRFNGSHIDVVVQIRAHNGRIEEIIFRVTDPKQKTTLKKIIS ?
0.053

Okay, and DEKLLKRLEEFWKAVRKGNKQEIEEYADPNVRFQIGDKQVHGRENAKKYFHDERREIRIEYHDLKVRVRGDRIEIRYTVQYTHNGQPTERHYDIEIVLNGEKMKSMSVRTDR ?
-0.026

Try this sequence next: DTEQLKVFKEFVDAHRHNNPEELKKQMDKDVHFRVGNKQIHGREKAAHYWETIMHEIRVEWKSIVMKDSNGKAKAKFRFVENVNGKPQENTYDLEFSARNGRINSITMRFDEDQQRHHKK
0.345

// next record DDDNARELVKRIMKAWQTGDEKELNKNMDPNVRIEVGDKTWHGREDVSKMARELRKQVDSIEVKDVEVQGNHANADVVQVVNGEQKHYLVIIDFHNGKARRLKIEER
2.11

And what about the sequence DEEDVKTMIRIINTGDPDKFEKYFDPNASVRIGDHTFKGNKQVSEFIRRMRRKADHIEVKRVKTTNGRADIDLVVTFNGREIRFHVHAEAHNGKAERQELKVTDPNQQKELNNLVH ?
0.837

What would you report for DDDAVRKARELQKAYDHGDEQKVRDLADPNARVRVGDKKLHGMEDIAHTLAERDKQIDNTVRVDRITAHNGRVDANLRMRNNNNGRPNNFELDLKVVVDNGNIVDVDRQNNR ?
-0.207

Note, next up: DETREAQEIAKRIHKAVEENDEKQLEDQMPPDASVEVGDKTIHGRSRIARELWEEVETADHVNVSITSIRVDGDKVHVDMRYQFDDNGDDDVKHQKAQYVRNGDHFVLKNVHRK
-0.225

Also DDEEARDIIRLMRHGNFDNIVKQMDPNVTLRYGNNTFHGRERAKHAAQRLKTHIDHVHLKDYKVHGDKIVIDMVYNVNGKHYEVRVVMHIHNGRIQKVQWDFRDDRDETDAEKRLS , if possible.
1.28

Would you mind doing DERDLHRQAEDVATAWQTGDSHQFEKLASENVRYVIGDKSYKGKEQVKDMLTEIDKQADHRRVSSMTVHGNKIVVVITVHYNGRTRRLNVVFDVHNGRVRQVDLSIG as well?
0.701

Input DEDTESNFRQFIRAWKSGNPNELRRLAPPDAHLKVGDKEWHGMEKAVTYLEREVKESTFDIKRWDVKVDGNSVTAHVKMVVHDNGQPNNYKVEMNANFHNGQIESYNVETRK
0.267

Another sequence: DEDRYKKLMDKAFKLIMSGDEETMIKMLKPDVQYEYIDTKYEGEQVAKVIVRIVQKVGAEVRIKRKEHKGDKARADFDYHNGDQTVRTTAEVRYEGDKLKEARVKMTDEVKKVVQRG
0.028

Do the same for DEETKAHKWAEKFQRALKDGDPKKMENLMDKNVKAQYGDKTIHGDEEANSWVRRMKHQVDHVSATITRVEADNGKVIVRMTVVVDHNGREQRYEVNLEAKDHNGHIHLTRLKVG please
0.262

Now the sequence EDELLHILKEFIQAVNSGDSDKLRELMDPNVKAEYGDKEIHGREEIARQWRQIRHEIKFSWKHLHFEVKGDKLRVDFTVVMDVNGKPKHYRAVLYMKLKNGRITTLHVKMPEEEAKELNK
0.363
